# System: O10D3 V134A R197K
# Condition Summary: stereoisomer not certain
Observable: odorant receptor agonist call

CC1=NC(C)C(C)S1 (centres undefined)    inactive
Cc1cnc(C)c(C)n1    inactive
CCCCCCC=CCCC=O    inactive
CC1=C(O)C(=O)C(C)O1 (centres undefined)    inactive

====

# Test Target: OR13C9 (Homo sapiens)
# Condition Summary: stereoisomer not certain
Please state which outcome applies, choosing from True = active, False = inactive

Consider the following illustrative entries.
CCCCCC(=O)C(C)C(C)=O (centres undefined)    False
CCCC(S)CCOC(C)=O (centres undefined)    False
CCC1OC(=O)C(O)=C1C (centres undefined)    False
CCCCCC(S)C(C)CO (centres undefined)    True
CC(=O)c1c(C)c([N+](=O)[O-])c(C(C)(C)C)c([N+](=O)[O-])c1C    False
CCCCC(S)C(C)CO (centres undefined)    False

Field: outcome | Entry: Cc1cnc(C)c(C)n1 False

Hi, do you know how CC1CCCCCCCCCCCCC(=O)C1 (centres undefined) came out in this test? False

How did this test come out for CCC1OC(C)=C(O)C1=O (centres undefined) ? False

Data origin, for the record: the M2OR odorant receptor database
